For each of the compounds below, state its MIC.
# Tested on: P. aeruginosa 378057
# assayExplanation: MIC, broth microdilution (CLSI), P. aeruginosa 378057
# Type: cell-based
# reportedConditions: Pseudomonas aeruginosa, 5×10^5 cfu/mL, cation-adjusted Iso-Sensitest broth containing human Apo-transferrin, read-out: Minimum Inhibitory Concentration (MIC)

Solved cases (4 shown):
CC(C)(O/N=C(\C(=O)N[C@@H]1C(=O)N2C(C(=O)[O-])=C(C[N+]34CCC(Cn5ncc6cc(O)c(O)cc6c5=O)(CC3)C4)CS[C@H]12)c1csc(N)n1)C(=O)[O-].[Na+] ... ≤ 0.031 µg/mL
CC[N+](CC)(CCN1C(=O)c2ccc(O)c(O)c2C1=O)CC1=C(C(=O)[O-])N2C(=O)[C@@H](NC(=O)/C(=N\OC(C)(C)C(=O)[O-])c3csc(N)n3)[C@H]2SC1.[Na+] ... ≤ 0.031 µg/mL
CC(C)(O/N=C(\C(=O)N[C@@H]1C(=O)N2C(C(=O)O)=C(C[N+]3(CCN4C(=O)c5c(Cl)cc(O)c(O)c5C4=O)CCCC3)CS[C@H]12)c1csc(N)n1)C(=O)[O-] ... 0.063 µg/mL
CC(C)(O/N=C(\C(=O)N[C@@H]1C(=O)N2C(C(=O)O)=C(C[N+]34CCC(CN5C(=O)c6ccc(O)c(O)c6C5=O)(CC3)CC4)CS[C@H]12)c1csc(N)n1)C(=O)[O-] ... ≤ 0.031 µg/mL

Proceeding to the next compound to report its MIC.
## Input Find the measured MIC of CC(C)(O/N=C(\C(=O)N[C@@H]1C(=O)N2C(C(=O)[O-])=C(C[N+]34CCC(CNC(=O)C(=O)c5cc(O)c(O)c(F)c5)(CC3)CC4)CS[C@H]12)c1csc(N)n1)C(=O)[O-].[Na+] and report it.
## Output ≤ 0.031 µg/mL
